tested on: ApoB secretion, HepG2 cells; assay: Quantification of the secretion of ApoB (HepG2 cells, immunoprecipitation, scintillation counting); type: cell-based; settings: Homo sapiens, HepG2, 24 h, 24 hours of incubation
measurementName: pIC50
# log scale: pIC50 equals minus log10 of the concentration in mol/L

Req: Report pIC50 for CCNC(=O)C(c1ccccc1)N1CCN(c2cc(C)c(NC(=O)c3ccccc3-c3ccc(C(F)(F)F)cc3)c(C)c2)CC1 (centres unmarked) please.
Resp: 7.33

Req: Report pIC50 for COC(=O)C(c1ccc(Cl)cc1Cl)N1CCN(c2ccc(NC(=O)c3ccccc3-c3ccc(C(F)(F)F)cc3)cc2)CC1 (centres unmarked) please.
Resp: 6.38
